Numbers sourced from patent US11834453B2.

Here's a batch of compounds along with measured IC50 for EGFR (Homo sapiens (Human)).

Consider the following illustrative entries.
- compound: "Cc1cc(Nc2ncnc3cnc(N(C)C4CCOCC4)nc23)ccc1Oc1ccc2c(c1)ncn2C [Example 153]"
  IC50: "5.55 µM"
- compound: "Cn1cnc2cc(Oc3ccc(Nc4ncnc5cnc(N6CCOC(C)(C)C6)nc45)cc3Cl)ccc21 [Example 448]"
  IC50: "≥ 10 µM"
- compound: "Cc1cc(Nc2ncnc3cnc(N4CC[C@H](OC(F)F)C4)nc23)ccc1Oc1ccn2ncnc2c1 [Example 361]"
  IC50: "7.48 µM"
- compound: "CSc1ncc2ncnc(Nc3ccc(Oc4ccc5c(c4)ncn5C)c(C)c3F)c2n1 [Example 266]"
  IC50: "≥ 10 µM"
- compound: "Cn1cnc2cc(Oc3ccc(Nc4ncnc5cnc(N6CC7CCC(C6)O7)nc45)cc3Cl)ccc21 [Example 447]"
  IC50: "≥ 10 µM"

Form field - read-out: IC50; system: EGFR (Homo sapiens (Human)); submitted item: Cc1cc(Nc2ncnc3cnc(N4CCC45COC5)nc23)ccc1Oc1ccc2c(c1)ncn2C [Example 27]
Sequence (P00533 25-1210): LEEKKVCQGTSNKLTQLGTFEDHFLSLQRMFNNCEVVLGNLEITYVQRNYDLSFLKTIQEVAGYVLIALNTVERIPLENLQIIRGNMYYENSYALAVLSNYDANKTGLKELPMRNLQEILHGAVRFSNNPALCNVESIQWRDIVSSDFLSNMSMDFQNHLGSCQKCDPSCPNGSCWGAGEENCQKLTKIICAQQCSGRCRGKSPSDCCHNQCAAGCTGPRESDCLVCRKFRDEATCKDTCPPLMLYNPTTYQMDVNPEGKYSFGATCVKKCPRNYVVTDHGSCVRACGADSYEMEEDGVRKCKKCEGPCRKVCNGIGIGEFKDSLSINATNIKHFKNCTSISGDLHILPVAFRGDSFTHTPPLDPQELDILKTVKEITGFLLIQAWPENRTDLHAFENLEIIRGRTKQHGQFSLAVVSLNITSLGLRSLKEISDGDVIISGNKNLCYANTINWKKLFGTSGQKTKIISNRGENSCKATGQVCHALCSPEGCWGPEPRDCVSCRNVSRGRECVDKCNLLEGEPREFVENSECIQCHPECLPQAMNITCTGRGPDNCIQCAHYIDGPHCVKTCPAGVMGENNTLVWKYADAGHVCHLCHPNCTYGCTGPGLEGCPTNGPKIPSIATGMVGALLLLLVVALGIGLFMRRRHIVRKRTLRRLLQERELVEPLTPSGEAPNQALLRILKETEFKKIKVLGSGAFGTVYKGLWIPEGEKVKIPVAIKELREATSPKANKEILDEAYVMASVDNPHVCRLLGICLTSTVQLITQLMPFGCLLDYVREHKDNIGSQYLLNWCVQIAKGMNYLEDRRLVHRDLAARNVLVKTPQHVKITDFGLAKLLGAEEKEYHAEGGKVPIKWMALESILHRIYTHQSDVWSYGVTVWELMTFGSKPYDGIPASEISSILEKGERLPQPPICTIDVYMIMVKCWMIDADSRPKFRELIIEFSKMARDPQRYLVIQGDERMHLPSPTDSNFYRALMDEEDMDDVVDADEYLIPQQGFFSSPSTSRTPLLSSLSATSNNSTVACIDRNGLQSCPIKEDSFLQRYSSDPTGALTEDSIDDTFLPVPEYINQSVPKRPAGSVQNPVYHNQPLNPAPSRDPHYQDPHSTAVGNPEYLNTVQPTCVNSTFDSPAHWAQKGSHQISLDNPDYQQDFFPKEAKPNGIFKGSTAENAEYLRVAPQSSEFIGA
≥ 10 µM

Form field - read-out: IC50; system: EGFR (Homo sapiens (Human)); submitted item: Cc1cc(Nc2ncnc3cnc(NC4CC(F)(F)C4)nc23)ccc1Oc1ccc2c(c1)ncn2C [Example 30]
≥ 10 µM

Form field - read-out: IC50; system: EGFR (Homo sapiens (Human)); submitted item: Cn1cnc2cc(Oc3ccc(Nc4ncnc5cnc(N6CCOCC6)nc45)cc3Cl)ccc21 [Example 81, 2,2,2-trifluoroacetate]
≥ 10 µM

Form field - read-out: IC50; system: EGFR (Homo sapiens (Human)); submitted item: Cc1cc(Nc2ncnc3cnc(N4CC5CCOC5C4)nc23)ccc1Oc1ccc2c(c1)ncn2C (stereo not shown) [Example 462]
≥ 10 µM

Form field - read-out: IC50; system: EGFR (Homo sapiens (Human)); submitted item: Cc1cc(Nc2ncnc3cnc(NC4CCC4)nc23)ccc1Oc1ccc2c(c1)ncn2C [Example 14]
≥ 10 µM

Form field - read-out: IC50; system: EGFR (Homo sapiens (Human)); submitted item: Cc1cc(Nc2ncnc3cnc(N(C)C4COC4)nc23)ccc1Oc1ccn2ncnc2c1 [Example 403]
6.63 µM

---

Here's a batch of compounds along with measured IC50 for UniProt:P00533.
Return type: number; implicit unit µM.

- entry smiles: "Cc1c(Oc2ccn3ncnc3c2)ccc(Nc2ncnc3cnc(N4C[C@@H]5C[C@H]4CO5)nc23)c1F"
  measurement type: "IC50"
  recorded number: 4.15

Shifting focus to the compound that follows.
Give its IC50 value. Item: Cc1cc(Nc2ncnc3cnc(N4CCN[C@@H](C(F)(F)F)C4)nc23)ccc1Oc1ccc2c(c1)ncn2C
3.13

---

Here's a batch of compounds along with measured IC50 for ErbB2 WT (Homo sapiens (Human), UniProt P04626).
Return type: number; implicit unit µM.

- compound: "Clc1cc(Nc2ncnc3cnc(N4CC[C@@]45CCOC5)nc23)ccc1Oc1ccn2ncnc2c1 [Example 434]"
  units label: "µM"
  recorded number: 0.0102

Form field - read-out: IC50; system: ErbB2 WT (Homo sapiens (Human), UniProt P04626); submitted item: Cc1cc(Nc2ncnc3cnc(N4CCN[C@H](C)C4)nc23)ccc1Oc1ccc2c(c1)ncn2C [Example 277]
Sequence (P04626 23-1255): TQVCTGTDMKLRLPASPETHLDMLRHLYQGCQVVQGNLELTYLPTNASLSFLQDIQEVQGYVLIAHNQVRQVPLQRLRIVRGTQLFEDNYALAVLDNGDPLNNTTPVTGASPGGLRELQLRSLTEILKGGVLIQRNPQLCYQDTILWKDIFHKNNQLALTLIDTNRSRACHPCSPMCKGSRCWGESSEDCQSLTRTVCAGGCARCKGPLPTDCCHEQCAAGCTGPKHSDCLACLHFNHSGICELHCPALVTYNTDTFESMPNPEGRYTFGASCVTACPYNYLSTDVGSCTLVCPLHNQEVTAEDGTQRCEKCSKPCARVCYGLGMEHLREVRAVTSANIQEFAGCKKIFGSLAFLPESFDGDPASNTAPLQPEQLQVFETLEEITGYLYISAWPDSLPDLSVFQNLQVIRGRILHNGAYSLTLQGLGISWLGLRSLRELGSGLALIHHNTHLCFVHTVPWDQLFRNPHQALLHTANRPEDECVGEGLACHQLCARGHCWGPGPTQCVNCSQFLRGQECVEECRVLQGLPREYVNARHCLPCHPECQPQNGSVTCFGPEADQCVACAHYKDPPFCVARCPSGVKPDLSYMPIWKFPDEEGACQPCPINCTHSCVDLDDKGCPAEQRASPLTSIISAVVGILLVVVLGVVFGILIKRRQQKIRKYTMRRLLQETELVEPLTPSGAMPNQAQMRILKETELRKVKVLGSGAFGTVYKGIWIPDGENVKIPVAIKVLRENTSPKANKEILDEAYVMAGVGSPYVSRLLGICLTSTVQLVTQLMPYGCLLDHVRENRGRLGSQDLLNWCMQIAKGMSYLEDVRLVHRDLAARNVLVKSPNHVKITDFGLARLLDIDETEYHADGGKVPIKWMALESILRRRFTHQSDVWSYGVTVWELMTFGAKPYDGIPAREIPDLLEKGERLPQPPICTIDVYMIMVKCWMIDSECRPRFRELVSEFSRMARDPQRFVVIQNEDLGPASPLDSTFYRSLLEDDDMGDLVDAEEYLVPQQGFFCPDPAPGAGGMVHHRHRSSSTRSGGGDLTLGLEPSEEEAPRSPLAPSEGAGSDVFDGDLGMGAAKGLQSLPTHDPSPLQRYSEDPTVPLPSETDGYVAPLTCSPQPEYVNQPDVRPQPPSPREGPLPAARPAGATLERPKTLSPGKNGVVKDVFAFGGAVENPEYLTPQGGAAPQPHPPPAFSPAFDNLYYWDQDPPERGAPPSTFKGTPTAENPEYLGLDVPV
0.0428

Form field - read-out: IC50; system: ErbB2 WT (Homo sapiens (Human), UniProt P04626); submitted item: Cc1cc(Nc2ncnc3cnc(N4CC(C)(O)C4)nc23)ccc1Oc1ccc2c(c1)ncn2C [Example 246]
0.0708

Form field - read-out: IC50; system: ErbB2 WT (Homo sapiens (Human), UniProt P04626); submitted item: CSc1ncc2ncnc(Nc3ccc(Oc4ccc5c(C)onc5c4)c(C)c3)c2n1 [Example 12]
0.275

---

Here's a batch of molecules along with measured pIC50 for EGFR (Homo sapiens (Human)).
Keep it numeric: pIC50 is minus log10 of the concentration in mol/L.

Form field - read-out: pIC50; system: EGFR (Homo sapiens (Human)); submitted item: Cc1cc(Nc2ncnc3cnc(N4CC[C@H](S(C)(=O)=O)C4)nc23)ccc1Oc1ccc2c(c1)ncn2C
5.03

Form field - read-out: pIC50; system: EGFR (Homo sapiens (Human)); submitted item: Cn1cnc2cc(Oc3ccc(Nc4ncnc5cnc(N6C7CCC6COC7)nc45)cc3Cl)ccc21
5.02

Form field - read-out: pIC50; system: EGFR (Homo sapiens (Human)); submitted item: FC(F)(F)[C@@H]1CN(c2ncc3ncnc(Nc4ccc(Oc5ccn6ncnc6c5)c(Cl)c4)c3n2)CCN1
5.59

---

Here's a batch of compounds along with measured log10 of IC50 for UniProtKB P04626.
Please keep in mind that the values are log10 of IC50 expressed in nM.

Form field - read-out: log10 of IC50; system: UniProtKB P04626; submitted item: CCN(CC(C)(C)O)c1ncc2ncnc(Nc3ccc(Oc4ccc5c(c4)ncn5C)c(C)c3)c2n1
1.62

Form field - read-out: log10 of IC50; system: UniProtKB P04626; submitted item: Cc1c(Oc2ccc3c(c2)ncn3C)ccc(Nc2ncnc3cnc(N4CCOCC4)nc23)c1F
2.14

Form field - read-out: log10 of IC50; system: UniProtKB P04626; submitted item: Cn1cnc2cc(Oc3ccc(Nc4ncnc5cnc(N6CCC7COCC76)nc45)cc3Cl)ccc21 (stereo not drawn)
1.98

Form field - read-out: log10 of IC50; system: UniProtKB P04626; submitted item: Cc1cc(Nc2ncnc3cnc(N(C)CC4(O)CC4)nc23)ccc1Oc1ccc2c(c1)ncn2C
1.60

Form field - read-out: log10 of IC50; system: UniProtKB P04626; submitted item: OC1(CNc2ncc3ncnc(Nc4ccc(Oc5ccn6ncnc6c5)c(Cl)c4)c3n2)COC1
1.51

Form field - read-out: log10 of IC50; system: UniProtKB P04626; submitted item: Cc1cc(Nc2ncnc3cnc(N4CCC5COCC54)nc23)ccc1Oc1ccn2ncnc2c1 (stereo not drawn)
1.11

Form field - read-out: log10 of IC50; system: UniProtKB P04626; submitted item: Cc1cc(Nc2ncnc3cnc(N(CC(F)F)CC(F)F)nc23)ccc1Oc1ccc2c(c1)ncn2C
2.83

Form field - read-out: log10 of IC50; system: UniProtKB P04626; submitted item: Cn1cnc2cc(Oc3ccc(Nc4ncnc5cnc(N6CC7CCC(C6)O7)nc45)cc3Cl)ccc21
1.96

Form field - read-out: log10 of IC50; system: UniProtKB P04626; submitted item: Cc1cc(Nc2ncnc3cnc(O[C@@H]4CNC[C@H](F)C4)nc23)ccc1Oc1ccc2c(c1)ncn2C
2.74

Form field - read-out: log10 of IC50; system: UniProtKB P04626; submitted item: Cc1cc(Nc2ncnc3cnc(N4CCN[C@@H](C(F)(F)F)C4)nc23)ccc1Oc1ccn2ncnc2c1
1.63

Form field - read-out: log10 of IC50; system: UniProtKB P04626; submitted item: CN(c1ncc2ncnc(Nc3ccc(Oc4ccn5ncnc5c4)c(Cl)c3)c2n1)C1COC1
1.29

Form field - read-out: log10 of IC50; system: UniProtKB P04626; submitted item: Cc1cc(Nc2ncnc3cnc(N4C5CCC4COC5)nc23)ccc1Oc1ccn2ncnc2c1
2.29

Form field - read-out: log10 of IC50; system: UniProtKB P04626; submitted item: Cc1c(Oc2ccc3c(c2)ncn3C)ccc(Nc2ncnc3cnc(N(C)C)nc23)c1F [Example 71, 2,2,2-trifluoroacetate]
2.48

Form field - read-out: log10 of IC50; system: UniProtKB P04626; submitted item: Cc1cc(Nc2ncnc3cnc(N4CCO[C@H]5C[C@H]54)nc23)ccc1Oc1ccc2c(c1)ncn2C (single isomer, unassigned) [Example 60a]
1.46

Form field - read-out: log10 of IC50; system: UniProtKB P04626; submitted item: Cc1c(Oc2ccc3c(c2)ncn3C)ccc(Nc2ncnc3cnc(N4C[C@H]5C[C@@H]4CO5)nc23)c1F
1.92

Form field - read-out: log10 of IC50; system: UniProtKB P04626; submitted item: Cc1cc(Nc2ncnc3cnc(N(C)CCC(C)(C)O)nc23)ccc1Oc1ccc2c(c1)ncn2C
1.32

Form field - read-out: log10 of IC50; system: UniProtKB P04626; submitted item: Cc1cc(Nc2ncnc3cnc(N4CC[C@@H]4C(C)(C)O)nc23)ccc1Oc1ccc2c(c1)ncn2C
2.16

---

Here's a batch of compounds along with measured IC50 for ErbB2 WT (Homo sapiens (Human), UniProt P04626).
Return type: number; implicit unit nM.

Consider the following illustrative entries.
- compound: "Cc1cc(Nc2ncnc3cnc(-c4cccnc4)nc23)ccc1Oc1ccc2c(c1)ncn2C"
  IC50, nM: 41.5
- compound: "Cc1cc(Nc2ncnc3cnc(N4CCOC(C)(C)C4)nc23)ccc1Oc1ccc2c(c1)ncn2C"
  IC50, nM: 104
- compound: "Cc1cc(Nc2ncnc3cnc(O[C@@H]4CN(C)C[C@@H]4F)nc23)ccc1Oc1ccc2c(c1)ncn2C"
  IC50, nM: 346
- compound: "Cc1cc(Nc2ncnc3cnc(N4CCOC5CC54)nc23)ccc1Oc1ccn2ncnc2c1 (centres unmarked)"
  IC50, nM: 68.9
- compound: "O[C@H]1[C@@H]2CC[C@H]1CN(c1ncc3ncnc(Nc4ccc(Oc5ccn6ncnc6c5)c(Cl)c4)c3n1)C2"
  IC50, nM: 25.3
- compound: "CON(C)c1ncc2ncnc(Nc3ccc(Oc4ccc5c(c4)ncn5C)c(C)c3)c2n1"
  IC50, nM: 52.4

Form field - read-out: IC50; system: ErbB2 WT (Homo sapiens (Human), UniProt P04626); submitted item: CSc1ncc2ncnc(Nc3ccc(Oc4ccc5conc5c4)c(C)c3)c2n1
144

Form field - read-out: IC50; system: ErbB2 WT (Homo sapiens (Human), UniProt P04626); submitted item: CC(C)(O)[C@@H]1CCN(c2ncc3ncnc(Nc4ccc(Oc5ccn6ncnc6c5)c(Cl)c4)c3n2)C1
22.7
